# test system: recombinant human Cathepsin K (Homo sapiens (Human))
# Sequence (P43235 115-329): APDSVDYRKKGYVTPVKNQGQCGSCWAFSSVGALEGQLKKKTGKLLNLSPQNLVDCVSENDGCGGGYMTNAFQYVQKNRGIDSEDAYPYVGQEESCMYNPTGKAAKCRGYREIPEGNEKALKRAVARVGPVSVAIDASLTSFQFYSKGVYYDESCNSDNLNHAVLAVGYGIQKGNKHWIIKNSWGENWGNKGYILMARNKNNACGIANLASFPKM
# experiment description: Inhibition of human Cathepsin K
# test parameters: substrate Z-Gly-Pro-Arg-AMC
property: pIC50
Just so you know, pIC50 here is -log10 of the concentration in molar units; reply with that number alone.

# count of solved cases: 10
- CS(=O)(=O)c1cc(-c2ccc(C[C@@H](C#N)NC(=O)[C@H]3N[C@@H]4CC[C@H]3C4)c(F)c2)ccc1F [Example 152]: 5.21
- COCCN1C(=O)Cc2ccc(-c3ccc(C[C@@H](C#N)NC(=O)[C@H]4N[C@@H]5CC[C@H]4C5)c(F)c3)cc21 [Example 158]: 5.03
- N#C[C@H](Cc1ccc(-c2ccc(S(N)(=O)=O)cc2)cc1F)NC(=O)[C@H]1N[C@H]2C[C@@H]1[C@@H]1C[C@@H]12 [Example 136]: 5.21
- CN1C(=O)Cc2ccc(-c3ccc(C[C@@H](C#N)NC(=O)[C@H]4N[C@@H]5CC[C@H]4C5)c(F)c3F)cc21 [Example 24]: 4.88
- N#C[C@H](Cc1ccc(-c2cnn(C(=O)C3CCOCC3)c2)cc1F)NC(=O)[C@H]1N[C@@H]2CC[C@H]1C2 [Example 74]: 5.60
- N#C[C@H](Cc1ccc(-c2ccc(C(F)(F)F)s2)cc1F)NC(=O)[C@H]1N[C@@H]2CC[C@H]1C2 [Example 33]: 5.32
- CN1Cc2cc(-c3ccc(C[C@@H](C#N)NC(=O)[C@H]4N[C@@H]5CC[C@H]4C5)c(F)c3)ccc2S1(=O)=O [Example 169]: 5.28
- N#C[C@H](Cc1ccc([C@@H]2CCN3CCOC[C@H]3C2)cc1F)NC(=O)[C@H]1N[C@@H]2CC[C@H]1C2 [Example 283]: 5.44
- CS(=O)(=O)c1ccc(-c2ccc(C[C@@H](C#N)NC(=O)[C@H]3N[C@@H]4CC[C@H]3C4)c(F)c2)cc1F [Example 12]: 5.68
- CO[C@@H]1C[C@@H]2CN(c3ccc(C[C@@H](C#N)NC(=O)[C@H]4N[C@@H]5CC[C@H]4C5)c(F)c3)CCN2C1 [Example 269]: 5.77

INPUT: Can you look up the measured pIC50 of N#C[C@H](Cc1ccc(N2CCC(N3CCOCC3)CC2)cc1F)NC(=O)[C@H]1N[C@@H]2CC[C@H]1C2 [Example 193] for me?
OUTPUT: 5.66

INPUT: Thanks! And CN1CCN(C(=O)c2cc(-c3ccc(C[C@@H](C#N)NC(=O)[C@H]4N[C@@H]5CC[C@H]4C5)c(F)c3)cs2)CC1=O [Example 233] ?
OUTPUT: 5.52

INPUT: Thanks! And CS(=O)(=O)c1ccc(-c2ccc(C[C@@H](C#N)NC(=O)[C@H]3N[C@@H]4CC[C@H]3C4)c(F)c2F)cc1 [Example 176] ?
OUTPUT: 4.86

* * *

Catalogue of compounds with associated IC50
# test system: recombinant human DPPI (Cathepsin C) (Homo sapiens (Human))
# Sequence (P53634 231-394): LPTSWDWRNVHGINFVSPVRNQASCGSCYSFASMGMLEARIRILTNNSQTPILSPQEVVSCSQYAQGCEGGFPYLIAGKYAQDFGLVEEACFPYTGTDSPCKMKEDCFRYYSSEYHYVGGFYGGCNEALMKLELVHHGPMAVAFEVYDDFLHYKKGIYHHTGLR
# Sequence (P53634 395-463): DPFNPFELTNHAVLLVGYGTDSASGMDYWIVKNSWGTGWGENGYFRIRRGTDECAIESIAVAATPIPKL
# Sequence (P53634 25-134): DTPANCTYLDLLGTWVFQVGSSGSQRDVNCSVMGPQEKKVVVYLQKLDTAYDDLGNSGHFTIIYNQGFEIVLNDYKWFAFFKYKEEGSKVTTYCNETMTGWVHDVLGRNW
# experiment description: Inhibition of human DPPI (Cathepsin C)
# test parameters: substrate Gly-Arg-AMC
Numbers only; they are read as nM.

# count of solved cases: 3
• CS(=O)(=O)N1CCN(c2ccc(C[C@@H](C#N)NC(=O)[C@H]3N[C@@H]4CC[C@H]3C4)c(F)c2)CC1 = 17
• N#C[C@H](Cc1ccc(-c2ccccc2)cc1F)NC(=O)[C@H]1N[C@@H]2CC[C@H]1C2 = 11.4
• Cn1c(=O)oc2cc(-c3ccc(CC(C#N)NC(=O)[C@H]4N[C@@H]5CC[C@H]4C5)c(F)c3)ccc21 (stereo partly shown) = 25.9

Could you now consider this next compound?
INPUT: Can you look up the measured IC50 of COCCN1CCN(c2ccc(C[C@@H](C#N)NC(=O)[C@H]3N[C@@H]4CC[C@H]3C4)c(F)c2)CC1C (stereo partly shown) for me?
OUTPUT: 7.4

Origin of the recorded values: patent US8987249B2
